Target: Rap guanine nucleotide exchange factor 3 (Homo sapiens)
Experiment: Confirmatory qHTS for agonist of cAMP-regulated guanine nucleotide exchange factor 3 (EPAC1) (AID 1645881); note: nearly all actives have a fitted effect of over 75% in size;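 for activation: EPAC1 catalysed release of BODIPY-GDP from Rap1B seen as fluorescence loss; 100% = effect of cAMP agonist control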
Settings: EPAC1 Rap1B BODIPY-GDP exchange fluorescence; series mostly up to 154 µM
Inconclusive results are not listed. Activity calls are given as the source filed them. Calls come from the whole dose curve; as a rule, active = well fitted activation curve with a large enough effect; inconclusive = small, poorly fitted or top-dose-only effect; inactive = no such curve, though single readings can be large or run the other way.
Lab note: assign the record to one of YES = active, NO = inactive

Record request — test call for `CC(C)(C)n1nc(Cc2cccc3ccccc23)c(C#N)c1N`
NO

Next: COc1ccc(C2CC(=O)C3=C(C2)NC(C)=C(C#N)C3c2ccc(N(C)C)cc2)cc1 (configuration not stated)
NO

Next: `O=C(O)c1cccc(N2C(=O)c3cc([N+](=O)[O-])cc4cc([N+](=O)[O-])cc(c34)C2=O)c1`
NO

Next: Cc1cc(=O)oc2cc(NC(=O)C(C)Oc3ccccc3)ccc12 (configuration not stated)
NO

Next: `COc1ccc2c(=O)c(OC)c(-c3ccccc3)oc2c1`
NO

Next: `CCOC(=O)c1c(C)oc2nc(C)nc(N(C)Cc3ccccc3)c12`
NO

Next: COc1cc2c(cc1OC)C(COc1cc(C)cc(C)c1)N(C(C)=O)CC2 (configuration not stated)
NO

Next: `CCOC(=O)N1CCN(C(=O)C(C)(C)Oc2ccc(Cl)cc2)CC1`
NO

Next: `O=C(CSc1n[nH]c(=O)[nH]c1=O)Nc1ccc2c(c1)C(=O)c1ccccc1C2=O`
NO

Next: `COc1ccccc1Nc1nc2ccc(C)cc2cc1C#N`
NO

Next: `Cc1cccc(-c2nc3c(cnn3-c3ccccc3)c(=O)n2-c2cccc(Cl)c2)c1`
NO

Next: `COc1ccc(S(=O)(=O)/N=C2/NC(=O)/C(=C\c3cc(OC)c(OC)cc3[N+](=O)[O-])S2)cc1`
NO

Next: `CCOC(=O)c1nc(C)nc(Sc2n[nH]c(-c3cc(Cl)cc(Cl)c3)n2)c1C`
NO

Next: `Cc1ccc(S(=O)(=O)N2CCN(c3ncnc4sccc34)CC2)cc1C`
NO

Next: `CC1CCN(c2ccc3c(c2)S(=O)(=O)c2cccc(C(=O)NC4CCCCC4)c2C3=O)CC1`
YES

Next: `O=C(CN(Cc1ccco1)C(=O)c1ccc(Cl)cc1)Nc1c(Cl)cc(Cl)cc1Cl`
NO

Next: `CC(C)c1ccc(/C=C/C(=O)Nc2ccc(CN3CCOCC3)cc2)cc1`
NO

Next: `Cc1ccc(CNC(=O)c2c[nH]n3c(=O)c(Cc4ccc(F)cc4Cl)c(C)nc23)cc1`
NO

Next: `COc1ccc(OCC(=O)NCc2ccc3c(c2)CCN3C(=O)c2cccc(C)c2)cc1`
NO

Next: `Cc1nn(-c2ccc(F)cc2)c(-n2cccc2)c1C(=O)N1CCN(c2ccc(F)cc2)CC1`
NO

Next: `Cc1ccc(Nc2nc3nonc3[nH]c2=O)cc1Cl`
NO

Next: `O=C(CSc1nc(O)cc(=O)n1-c1ccccc1)Nc1nc2ccccc2s1`
NO

Next: CC(C)c1ccc(C2=CC(c3cccc(Cl)c3)n3ncnc3N2)cc1 (configuration not stated)
NO

Next: `CCCCN(C=O)c1c(CC)nc2c(OCc3ccc(C(F)(F)F)cc3)cccn12`
NO

Next: `CC(C)(C)N(NC(=O)Nc1ccc(F)cc1)C(=O)c1ccccc1`
NO

Next: `COC(=O)c1ccccc1NC(=S)NC(=O)c1ccc(C)cc1`
NO

Next: CC1CN(c2nc3ccccc3nc2C(C#N)C(=O)NCc2ccc3c(c2)OCO3)CC(C)O1 (configuration not stated)
NO

Next: `CCOC(=O)c1ccccc1NC(=O)c1c(C)oc2ncnc(N3CCOCC3)c12`
NO

Next: `CCc1nc2c(OCc3ccc(C(=O)OC)cc3)cccn2c1N(C)C(=O)c1ccc(OC)cc1`
NO

Next: `O=S(=O)(Nc1ccccc1N1CCCC1)c1ccccc1C(F)(F)F`
NO

Next: `Cn1c(=O)c(C(=O)NNC(=O)c2ccccc2Br)c(O)c2ccccc21`
NO

Next: `O=C(O)c1ccc(N/N=C/c2ccc(-c3ccccc3Cl)o2)cc1`
NO

Next: `COc1ccc(/C=C2\C(=O)NC(=S)N2C(=O)c2ccc(F)cc2)cc1`
NO

Next: `COc1ccccc1NC(=O)c1ccccc1NS(=O)(=O)c1cccs1`
NO

Next: `O=[N+]([O-])c1cccc(S(=O)(=O)Nc2cccc(-c3ccc(N4CCCC4)nn3)c2)c1`
NO

Next: Cc1[nH]n(-c2ncc(-c3ccccc3)s2)c(=O)c1C(c1ccc(Br)cc1)C(C#N)C#N (configuration not stated)
NO

Next: `C=CCc1ccccc1OCCSc1nc(-c2ccccc2F)nc2cc(=O)[nH]n12`
NO

Next: N#CC(c1ccccc1)C(CC(=NO)c1ccccc1)c1ccccc1 (configuration not stated)
NO

Next: CC(=O)N1N=C2c3ccccc3CCC2C1c1cccs1 (configuration not stated)
NO

Next: `O=C(Nc1ccccc1N1CCCCC1)C1=COCCO1`
NO

Next: `COc1ccc(-c2ccc(CCC(=O)O)n2-c2ccc(Cl)cc2C)cc1`
NO

Next: `COc1ccccc1N(CC(=O)Nc1ccc(Br)cc1F)S(=O)(=O)c1cccs1`
NO

----------
Target: Rap guanine nucleotide exchange factor 3 (Homo sapiens) (UniProt O95398)
Sequence (O95398 whole entry, looked up): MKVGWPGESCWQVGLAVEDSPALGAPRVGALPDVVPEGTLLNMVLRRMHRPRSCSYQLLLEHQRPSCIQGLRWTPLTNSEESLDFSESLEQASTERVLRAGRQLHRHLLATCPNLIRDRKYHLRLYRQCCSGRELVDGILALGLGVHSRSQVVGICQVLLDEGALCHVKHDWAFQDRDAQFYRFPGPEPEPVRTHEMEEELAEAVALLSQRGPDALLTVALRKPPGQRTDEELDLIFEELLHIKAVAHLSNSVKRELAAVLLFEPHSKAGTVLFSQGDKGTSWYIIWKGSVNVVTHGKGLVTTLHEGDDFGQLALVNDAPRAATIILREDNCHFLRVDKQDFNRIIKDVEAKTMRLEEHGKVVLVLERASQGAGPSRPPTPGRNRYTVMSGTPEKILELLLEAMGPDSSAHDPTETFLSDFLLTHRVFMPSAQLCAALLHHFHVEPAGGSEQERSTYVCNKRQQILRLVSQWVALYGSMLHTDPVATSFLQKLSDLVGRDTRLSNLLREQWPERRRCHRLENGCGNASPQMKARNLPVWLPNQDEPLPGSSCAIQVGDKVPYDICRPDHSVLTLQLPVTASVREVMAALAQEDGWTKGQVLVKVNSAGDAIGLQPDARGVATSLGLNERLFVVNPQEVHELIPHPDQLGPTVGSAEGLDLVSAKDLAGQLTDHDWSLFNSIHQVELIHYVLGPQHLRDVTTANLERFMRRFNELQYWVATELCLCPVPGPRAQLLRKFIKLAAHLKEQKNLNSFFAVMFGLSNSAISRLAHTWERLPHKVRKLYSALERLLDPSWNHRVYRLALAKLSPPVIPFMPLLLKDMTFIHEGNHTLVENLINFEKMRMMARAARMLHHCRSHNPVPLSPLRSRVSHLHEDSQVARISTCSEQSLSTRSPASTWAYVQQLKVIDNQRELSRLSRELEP
Assay: Confirmatory qHTS for agonist of cAMP-regulated guanine nucleotide exchange factor 3 (EPAC1) (AID 1645881); note: nearly all actives have a fitted effect of over 75% in size;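 for activation: EPAC1 catalysed release of BODIPY-GDP from Rap1B seen as fluorescence loss; 100% = effect of cAMP agonist control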
Conditions: EPAC1 Rap1B BODIPY-GDP exchange fluorescence; series mostly up to 154 µM
Results filed as inconclusive are left out. Activity calls are given as the source filed them. Calls come from the whole dose curve; as a rule, active = well fitted activation curve with a large enough effect; inconclusive = small, poorly fitted or top-dose-only effect; inactive = no such curve, though single readings can be large or run the other way.
Lab note: assign the record to one of Y (active), N (inactive)

Record request — test call for `COC(=O)c1cc(Sc2c(Cl)cccc2Cl)ccn1`
N

Next: `Cc1cccc(NC(=O)c2ccc(-n3cncn3)c([N+](=O)[O-])c2)c1`
N

Next: CC(=O)C1=C(O)C2(C)c3c(O)c(C)c(O)c(C(C)=O)c3OC2CC1=O (stereo not given)
N

Next: CCOC(=O)c1c(NC(=O)C2C3C=CC(C3)C2C(=O)O)sc2c1CCC(CC)C2 (stereo not given)
N

Next: `O=c1c2ccccc2nc(N/N=C/c2c(O)ccc3ccccc23)n1O`
N

Next: `CC1(C)Cc2c(C#N)c(N3CCN(C(=O)c4ccco4)CC3)nc(-c3ccco3)c2CS1`
N

Next: CC(C)CC(NS(=O)(=O)OCC(Cl)(Cl)Cl)c1ccccc1 (stereo not given)
N

Next: `Cc1cccc(N2C(=O)c3cccc4c(N(C)CCO)ccc(c34)C2=O)c1`
Y

Next: `CC(C)=CCC[C@H](C)C[C@@H]1Cc2[nH][nH]c(=O)c2[C@@H](c2ccc(F)cc2)O1`
N

Next: `O=C(CSc1ccc(-c2ccco2)nn1)c1cccc([N+](=O)[O-])c1`
N

----------
Target: Rap guanine nucleotide exchange factor 3 (Homo sapiens) (UniProt O95398)
Experiment: Confirmatory qHTS for agonist of cAMP-regulated guanine nucleotide exchange factor 3 (EPAC1) (AID 1645881); note: nearly all actives have a fitted effect of over 75% in size;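 for activation: EPAC1 catalysed release of BODIPY-GDP from Rap1B seen as fluorescence loss; 100% = effect of cAMP agonist control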
Details: EPAC1 Rap1B BODIPY-GDP exchange fluorescence; series mostly up to 154 µM
Results filed as inconclusive are left out. The source made the active and inactive calls. The call rests on the fitted dose curve; in most records, active means well fitted activation curve with a large enough effect; inconclusive means small, poorly fitted or top-dose-only effect; inactive means no such curve, though single readings can be large or run the other way.
Lab note: assign the record to one of label 1 (active), label 0 (inactive)

Record request — test call for `CCN(CC)CC#CC(OC)(c1ccccc1)c1ccccc1`
label 0

Next: `O=C(Cn1cnc2c(nnn2Cc2ccccc2)c1=O)N1CCN(c2ccccc2)CC1`
label 0

Next: `CN1/C(=C\C=C2/SC(=S)N(CC(=O)O)C2=O)C(C)(C)c2ccccc21`
label 1

Next: `Cc1ccc(Cl)cc1NC(=O)Nc1cn(CC(C)C)c(=O)c2ccccc12`
label 0

Next: `Cc1ccc(SCC(=O)OCC(=O)N(C)CC(=O)Nc2ccc(F)cc2)cc1C`
label 0

Next: `COc1ccc(C(=O)NCCn2cc(SCc3cccc(F)c3)c3ccccc32)cc1OC`
label 0

Next: COc1cc2c(cc1OC)C(COc1ccc(F)cc1)N(C(C)=O)CC2 (stereo not given)
label 0

Next: `O=C(O)c1ccn2c(C(=O)c3ccc(Cl)cc3)c(-c3ccccc3)cc2c1`
label 0

Next: `CCCCn1c(=O)[nH]c(=O)c2c1nc(-c1ccccc1F)n2Cc1ccccc1OC`
label 0

Next: `CCc1ccc(-c2cc(C)no2)cc1S(=O)(=O)N1CCC(C)CC1`
label 0

----------
Assay: Dual reporter qHTS for antagonist of Pregnane X Receptor (hPXR) against the NCATS DSHEA and TCM libraries: Fluorescence Readout (AID 1920061); note: 0% is about no effect
Conditions: PXR dual reporter cells, antagonist mode; series mostly up to 40 µM
Excerpt: Assay Development and Screening Technology Laboratory (ADST) National Center for Advancing Translational Sciences (NCATS), Rockville, MD National Institute of Health (NIH), Bethesda, Maryland Dietary Supplements and Natural Products have minor oversight of their safety and efficacy. […] Overall, we highlight four significant bioactivity profiles (measured by p-values) as examples of this prediction. […] 8; Read; Fluorescence; ViewLux plate reader. […] 11; Read; Luminescence; ViewLux plate reader. […]
Records with an inconclusive call do not appear. The source made the active and inactive calls. Calls follow the shape of the dose curve; as a rule, active = well fitted curve in the direction sought with a large enough effect; inconclusive = small, poorly fitted or top-dose-only effect, or another doubt; inactive = no such curve, though single readings can be large or run the other way.
OUTCOME MEASURE: outcome

* CCCCCCCC/C=C\CCCCCCCCCCCCCC(=O)O | inactive
* C=CC(=C)CCC=C(C)C | inactive
* C=C1CC[C@H](O)C/C1=C\C=C1/CCC[C@]2(C)[C@@H]([C@H](C)CC[C@H](C)C(C)C)CC[C@@H]12 | inactive
